# subject of test: US28 (Human cytomegalovirus)
# Sequence (P69332 whole entry): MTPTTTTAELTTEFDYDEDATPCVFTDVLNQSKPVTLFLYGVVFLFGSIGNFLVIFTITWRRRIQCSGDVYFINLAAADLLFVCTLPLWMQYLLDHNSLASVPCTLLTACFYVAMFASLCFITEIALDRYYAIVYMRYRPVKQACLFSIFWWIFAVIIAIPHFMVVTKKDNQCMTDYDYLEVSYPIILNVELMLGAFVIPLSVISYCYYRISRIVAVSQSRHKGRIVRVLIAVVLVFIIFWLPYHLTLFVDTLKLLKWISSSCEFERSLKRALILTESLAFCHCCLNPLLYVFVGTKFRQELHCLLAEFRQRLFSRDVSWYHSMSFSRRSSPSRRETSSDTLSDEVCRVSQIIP
measured parameter: IC50 (µM)
One number for each entry, in µM.

Kindly note the recorded IC50 for CCN1CCC[C@H]1CNC(=O)c1c(OC)ccc(I)c1O [IBZM] , which is 0.6
